# Lookup of reported EC50 cAMP, DiscoveRx keyed by entry
Target: T1, rat VPAC1 receptor (rat, UniProt P30083 31-459)
T1 sequence (looked up): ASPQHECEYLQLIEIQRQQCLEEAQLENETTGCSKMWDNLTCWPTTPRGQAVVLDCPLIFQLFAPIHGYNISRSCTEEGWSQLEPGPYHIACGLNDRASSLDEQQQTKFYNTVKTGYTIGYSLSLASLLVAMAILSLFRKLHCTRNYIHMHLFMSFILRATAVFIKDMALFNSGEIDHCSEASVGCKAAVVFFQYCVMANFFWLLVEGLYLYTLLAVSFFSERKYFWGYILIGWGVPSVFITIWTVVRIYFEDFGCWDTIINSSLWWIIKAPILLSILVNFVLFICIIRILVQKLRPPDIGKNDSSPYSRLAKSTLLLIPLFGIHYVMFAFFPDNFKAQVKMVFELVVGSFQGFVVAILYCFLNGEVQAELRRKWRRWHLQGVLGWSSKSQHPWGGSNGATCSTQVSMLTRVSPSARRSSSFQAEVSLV
Experiment: cell-based or functional assay
Where no end group is shown, it is not given here. [ ]: non-standard residue; d: D form. The star is where a group is joined. hArg = N=C(N)NCCCC[C@H](N)C(=O)O; Orn = NCCC[C@H](N)C(=O)O; Hexanoyl = CCCCCC(=O)*; Aib = CC(C)(N)C(=O)O
Entry rule: numbers only, all in nM.

Worked cases, EC50 cAMP, DiscoveRx given:
BINDER	RECORDED MEASUREMENT
Hexanoyl-HSDAVFTDNYTRL[hArg][Orn]QVAAKKYLQSIKNKRYGGPSSGAPPPS (ends and bridges not checked) [P308]	9.74
Hexanoyl-HSDAVFTDNYTRLQKQVAAK[Aib]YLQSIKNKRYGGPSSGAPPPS (ends and bridges not checked) [P251]	212
Hexanoyl-HSDAVFTDNYTRLR[Aib]KVAA[Aib]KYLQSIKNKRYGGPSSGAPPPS (ends and bridges not checked) [P321]	0.11
Hexanoyl-HSDAVFTDNYTRLR[Aib]QVAA[Aib]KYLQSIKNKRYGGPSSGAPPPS (ends and bridges not checked) [P261]	0.35

Hexanoyl-HSDAVFTDNYTRLR[Aib]QVAA[Aib][Orn]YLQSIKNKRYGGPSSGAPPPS (ends and bridges not checked) [P342] yielded EC50 cAMP, DiscoveRx of 2.39

Hexanoyl-HSDAVFTDNYTRLRKQVAAKKYLQTIKNKRYGGPSSGAPPPS [P115] yielded EC50 cAMP, DiscoveRx of 0.95

Hexanoyl-HSDAVFTDNYTRLR[Aib]QIAA[Aib]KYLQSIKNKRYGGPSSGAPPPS (ends and bridges not checked) [P322] yielded EC50 cAMP, DiscoveRx of 0.5

HSDAVFTDNYTRLRXQVAAXKYLQSIXXGGPSSGAPPPS (N-terminal hexanoyl (C6); Aib at 15, 20; Orn at 27, 28) [P352] yielded EC50 cAMP, DiscoveRx of 4.35

Hexanoyl-HSDAVFTDNYTRL[hArg]KQVAAKKYLQSIKNKRYGGPSSGAPPPS (ends and bridges not checked) [P305] yielded EC50 cAMP, DiscoveRx of 3.71

Hexanoyl-HSDAVFTDNYTRLRKQMAAQKYLNQLKKGGPSSGAPPPS [P143] yielded EC50 cAMP, DiscoveRx of 3.81
